Entries and their kon
Target: T1, tip-chimeric peptide IhfA5-mIhfB4NTHI (nontypeable Haemophilus influenzae …)
T1 construct: also called IHF(NTHI) tip chimeric peptide; IHFNTHI tip chimeric peptide
T1 peptide: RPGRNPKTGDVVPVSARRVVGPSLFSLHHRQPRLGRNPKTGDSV
Assay: SPR Biacore 3000, peptide immobilized, HuMab as analyte
Parameter Measured: kon (M⁻¹ s⁻¹)

humanized anti-tip monoclonal antibody, heavy chain SEQ ID NO: 2 and light chain SEQ ID NO: 9 (antibody, V domains shown, also called H10211 (1F8.F1 Humanized HC2) + L10212 (1F8.F1 Humanized LC3)) VH: EVQLVESGGGLVQPGGSLRLSCAASGFTFRTYAMSWVRQAPGKGLEWVATIGSDRRHTYYPDSVKGRFTISRDNSKNTLYLQMNSLRAEDTAVYYCVGPYDGYYGEFDYWGQGTLVTVSS VL: DVVMTQSPDSLAVSLGERATINCKSSQSLLDSDGKTFLNWLQQKPGQPPKRLIYLVSKLDSGVPDRFSGSGSGTDFTLTISSLQAEDVAVYYCWQGTHFPYTFGQGTKLEIKR = 3700
humanized anti-tip monoclonal antibody, heavy chain SEQ ID NO: 1 and light chain SEQ ID NO: 8 (antibody, V domains shown, also called H10210 (1F8.F1 Humanized HC1) + L10211 (1F8.F1 Humanized LC2)) VH: EVKLVESGGGLVQPGGSLRLSCAASGFTFRTYAMSWVRQAPGKGLEWVATIGSDRRHTYYPDSVKGRFTISRDNAKNTLYLQMNSLRAEDTAVYYCVGPYDGYYGEFDYWGQGTLVTVSS VL: DVVMTQSPLSLPVTLGQPASISCRSSQSLLDSDGKTFLNWLQQRPGQSPRRLIYLVSKRDSGVPDRFSGSGSGTDFTLKISRVEAEDVGVYYCWQGTHFPYTFGQGTKLEIKR = 42000
humanized anti-tip monoclonal antibody, heavy chain SEQ ID NO: 3 and light chain SEQ ID NO: 8 (antibody, V domains shown, also called H10212 (1F8.F1 Humanized HC3) + L10211 (1F8.F1 Humanized LC2)) VH: EVKLVQSGAEVKKPGASVKVSCKASGFTFRTYAMSWVRQAPGQRLEWVATIGSDRRHTYYPDKFQGRVTITRDNAKNTLYMELSSLRSEDTAVYYCVGPYDGYYGEFDYWGQGTLVTVSS VL: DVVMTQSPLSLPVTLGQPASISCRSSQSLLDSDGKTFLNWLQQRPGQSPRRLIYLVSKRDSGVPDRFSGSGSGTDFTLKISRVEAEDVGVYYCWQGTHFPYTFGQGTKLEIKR = 51000
humanized anti-tip monoclonal antibody, heavy chain SEQ ID NO: 1 and light chain SEQ ID NO: 9 (antibody, V domains shown, also called H10210 (1F8.F1 Humanized HC1) + L10212 (1F8.F1 Humanized LC3)) VH: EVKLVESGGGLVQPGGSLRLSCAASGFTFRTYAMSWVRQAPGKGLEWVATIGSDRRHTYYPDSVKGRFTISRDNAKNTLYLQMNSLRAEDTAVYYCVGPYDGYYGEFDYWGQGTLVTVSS VL: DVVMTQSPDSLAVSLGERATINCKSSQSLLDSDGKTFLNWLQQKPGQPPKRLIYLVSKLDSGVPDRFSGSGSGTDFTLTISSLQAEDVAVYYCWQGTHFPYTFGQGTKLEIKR = 40000
